Please go through the items and note down their abundance fitness.
B1: Ventral anterior homeobox 1, residues 102 to 157; numbered along this chain, Q5SQQ9 (parent)
chain: RTRTSFTAEQLYRLEMEFQRCQYVVGRERTELARQLNLSETQVKVWFQNRRTKQKK

Variants of: B1
Assay: abundance fitness (aPCA) (normalised: wild type 0, dead -1); higher = more abundant; growth selection in yeast, the domain comes from the species named
Conditions: Homo sapiens
Give only the figure.

Could you share which abundance fitness value was measured for R51I ? 0.068

Could you share which abundance fitness value was measured for F6I ? -0.089

Could you share which abundance fitness value was measured for R51E ? -0.309

Could you share which abundance fitness value was measured for T4D ? -0.14

Could you share which abundance fitness value was measured for Q22E ? 0.024

Could you share which abundance fitness value was measured for T41C ? 0.164

Could you share which abundance fitness value was measured for E31N ? 0.028

Could you share which abundance fitness value was measured for L32R ? -0.826

Could you share which abundance fitness value was measured for E28H ? -0.318

Could you share which abundance fitness value was measured for K56S ? 0.135

Could you share which abundance fitness value was measured for R27T ? 0.013
